- system.tested: hCA I (Homo sapiens)
- Sequence (P00915 whole entry): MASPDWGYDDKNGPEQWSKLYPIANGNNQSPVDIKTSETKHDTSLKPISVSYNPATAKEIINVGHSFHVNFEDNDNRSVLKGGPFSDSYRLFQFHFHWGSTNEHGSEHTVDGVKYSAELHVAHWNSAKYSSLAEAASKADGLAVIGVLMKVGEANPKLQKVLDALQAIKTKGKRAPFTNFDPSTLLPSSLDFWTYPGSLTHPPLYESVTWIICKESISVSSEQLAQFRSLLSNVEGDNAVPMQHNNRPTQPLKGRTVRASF
property.label: IC50 (nM)

- molecule: "Oc1ccc(Cc2cc(O)c(O)cc2Br)c(Br)c1 [Compound 18]"
  property.label: "IC50"
  numeric.value: 15.4
- molecule: "Oc1cc(Br)c(Cc2cc(O)c(Br)cc2O)cc1O [Compound 20]"
  property.label: "IC50"
  numeric.value: 19.3
- molecule: "Oc1ccc(O)c(Cc2cc(O)c(O)cc2Br)c1 [Compound 21]"
  property.label: "IC50"
  numeric.value: 12.4
- molecule: "COc1ccc(Cc2cc(OC)c(OC)cc2Br)c(Br)c1 [Compound 13]"
  property.label: "IC50"
  numeric.value: 38.5
- molecule: "COc1cc(Br)c(Cc2ccc(OC)c(OC)c2OC)cc1OC [Compound 17]"
  property.label: "IC50"
  numeric.value: 27.7
- molecule: "COc1cc(Cc2cc(OC)c(OC)cc2Br)c(OC)cc1Br [Compound 15]"
  property.label: "IC50"
  numeric.value: 20.4
- molecule: "COc1ccc(OC)c(Cc2cc(OC)c(OC)cc2Br)c1 [Compound 16]"
  property.label: "IC50"
  numeric.value: 21
